Source of measurements: ChEMBL document CHEMBL4382283

# procedure-text: Cmax in Sprague-Dawley rat at 10 mg/kg, po by LC-MS/MS analysis
# Assay type: ADME, organism-based
# Set-up: dose 10 mg/kg, route oral
# assay-setup: in vivo
List of Cmax values.
Write the answer as a number in ng/mL, unit excluded.

> print(dat)
                               smiles.input  recorded.metric  value.observed
1  COc1ccc(F)c([C@H]2CC[C@H](COc3cccc([C@H](C4CC4)[C@H](C)C(=O)O)c3)CC2)c1             Cmax            1360
2  COc1ccc(F)c([C@H]2CC[C@H](COc3cccc([C@@H](CC(=O)O)C4CC4)c3)CC2)c1             Cmax           18200
3  COc1ccc(F)c([C@H]2CC[C@H](COc3cccc([C@H](C4CC4)[C@@](C)(F)C(=O)O)c3)CC2)c1             Cmax             495

Turning now to a further record.
Consider the molecule COc1ccc(F)c([C@H]2CC[C@H](COc3cccc([C@H](C4CC4)[C@@H](F)C(=O)O)c3)CC2)c1 . State its measured Cmax.
3700

* * *

# procedure-text: Plasma concentration in diet-induced obese C57BL/6J mouse at 0.3 mg/kg, po once daily for 14 days measured 24 hrs post last dose
# Format: ADME, organism-based
recorded-metric: concentration at 24 h

Consider the molecule COc1ccc(F)c([C@H]2CC[C@H](COc3cccc([C@H](C4CC4)[C@@](C)(F)C(=O)O)c3)CC2)c1 . State its measured concentration at 24 h.
100 nM

* * *

# assayed-system: Free fatty acid receptor 1 (Rattus norvegicus)
# Sequence (Q8K3T4 whole entry): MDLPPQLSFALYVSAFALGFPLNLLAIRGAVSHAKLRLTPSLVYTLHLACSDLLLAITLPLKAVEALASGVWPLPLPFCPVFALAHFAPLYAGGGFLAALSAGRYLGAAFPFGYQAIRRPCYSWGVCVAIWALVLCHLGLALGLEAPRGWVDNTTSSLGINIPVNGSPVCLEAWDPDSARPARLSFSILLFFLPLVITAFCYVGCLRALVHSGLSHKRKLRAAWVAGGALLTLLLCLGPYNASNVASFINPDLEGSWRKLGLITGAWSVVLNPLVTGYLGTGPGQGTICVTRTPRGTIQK
# procedure-text: Agonist activity at rat GPR40 expressed in HEK293 cells assessed as induction of intracellular calcium mobilization by Fluo-8 dye based FLIPR assay
recorded-metric: pEC50
Please express pEC50 as -log10 of the molar concentration.

> print(dat)
                               smiles.input  recorded.metric  value.observed
1  COc1ccc(F)c([C@H]2CC[C@H](COc3cccc([C@H](C4CC4)[C@@H](F)C(=O)O)c3)CC2)c1            pEC50            7.55

Tell me its pEC50 on Free fatty acid receptor 1 (Rattus norvegicus): COc1ccc(F)c([C@H]2CC[C@H](COc3cccc([C@@H](CC(=O)O)C4CC4)c3)CC2)c1
8.39

Tell me its pEC50 on Free fatty acid receptor 1 (Rattus norvegicus): COc1ccc(F)c([C@H]2CC[C@H](COc3cccc([C@H](C4CC4)C(F)(F)C(=O)O)c3)CC2)c1
7.47

Tell me its pEC50 on Free fatty acid receptor 1 (Rattus norvegicus): COc1ccc(F)c([C@H]2CC[C@H](COc3cccc([C@H](C4CC4)[C@@](C)(F)C(=O)O)c3)CC2)c1
9.47

* * *

# procedure-text: Plasma concentration in diet-induced obese mouse at 3 mg/kg, po
# Type: ADME, organism-based
# assay-setup: in vivo
recorded-metric: concentration (µM)
Write the answer as a number in µM, unit excluded.

Consider the compound COc1ccc(F)c([C@H]2CC[C@H](COc3cccc([C@H](C4CC4)[C@@](C)(F)C(=O)O)c3)CC2)c1 . State its measured concentration.
0.87

* * *

# procedure-text: Plasma concentration in diet-induced obese mouse at 0.03 mg/kg, po
# Format: ADME, organism-based
# assay-setup: in vivo
recorded-metric: concentration (nM)
Write the answer as a number in nM, unit excluded.

Consider the compound COc1ccc(F)c([C@H]2CC[C@H](COc3cccc([C@H](C4CC4)[C@@](C)(F)C(=O)O)c3)CC2)c1 . State its measured concentration.
7.4

* * *

# assayed-system: UniProtKB O14842
# procedure-text: Agonist activity at human GPR40 expressed in HEK293 cells assessed as induction of intracellular calcium mobilization by Fluo-8 dye based FLIPR assay
# Format: functional, cell-based
recorded-metric: log10 of EC50 (log10 of the value in nM)
Quick note: numbers are log10 of EC50, with nM as the unit.

Examples with their reported log10 of EC50 follow.
> print(dat)
                               smiles.input    assayed.system  value.observed
1  COc1ccc(F)c([C@H]2CC[C@H](COc3cccc([C@H](C4CC4)C(F)(F)C(=O)O)c3)CC2)c1  UniProtKB O14842            1.20
2  COc1ccc(F)c([C@H]2CC[C@H](COc3cccc([C@H](C4CC4)C(C)(C)C(=O)O)c3)CC2)c1  UniProtKB O14842           -0.96
3  COc1ccc(F)c([C@H]2CC[C@H](COc3cccc([C@H](C4CC4)[C@H](F)C(=O)O)c3)CC2)c1  UniProtKB O14842            1.73
4  COc1ccc(F)c([C@H]2CC[C@H](COc3cccc([C@@H](CC(=O)O)C4CC4)c3)CC2)c1  UniProtKB O14842           -0.03
5  COc1ccc(F)c([C@H]2CC[C@H](COc3cccc([C@H](C4CC4)[C@@H](F)C(=O)O)c3)CC2)c1  UniProtKB O14842            0.04
6  COc1ccc(F)c([C@H]2CC[C@H](COc3cccc([C@H](C4CC4)[C@@H](C)C(=O)O)c3)CC2)c1  UniProtKB O14842            0.34

Turning now to a further record.
Consider the molecule COc1ccc(F)c([C@H]2CC[C@H](COc3cccc([C@H](C4CC4)[C@@](C)(F)C(=O)O)c3)CC2)c1 . State its measured log10 of EC50.
-0.60

* * *

# procedure-text: Half life in Sprague-Dawley rat at 2 mg/kg, iv by LC-MS/MS analysis
# Type: ADME, organism-based
# assay-setup: in vivo
recorded-metric: half-life (h)
Write the answer as a number in h, unit excluded.

Examples with their reported half-life follow.
> print(dat)
                               smiles.input  recorded.metric  value.observed
1  COc1ccc(F)c([C@H]2CC[C@H](COc3cccc([C@H](C4CC4)[C@@H](F)C(=O)O)c3)CC2)c1        half-life             4.7
2  COc1ccc(F)c([C@H]2CC[C@H](COc3cccc([C@@H](CC(=O)O)C4CC4)c3)CC2)c1        half-life             7.2
3  COc1ccc(F)c([C@H]2CC[C@H](COc3cccc([C@H](C4CC4)[C@@](C)(F)C(=O)O)c3)CC2)c1        half-life             4.3

Turning now to a further record.
Consider the compound COc1ccc(F)c([C@H]2CC[C@H](COc3cccc([C@H](C4CC4)[C@H](C)C(=O)O)c3)CC2)c1 . State its measured half-life.
4.8

* * *

# procedure-text: Half life in Sprague-Dawley rat at 10 mg/kg, po by LC-MS/MS analysis
# Type: ADME, organism-based
# assay-setup: in vivo
List of half-life values.
Write the answer as a number in min, unit excluded.

> print(dat)
                               smiles.input  endpoint.unit  value.observed
1  COc1ccc(F)c([C@H]2CC[C@H](COc3cccc([C@H](C4CC4)[C@H](C)C(=O)O)c3)CC2)c1            min             264
2  COc1ccc(F)c([C@H]2CC[C@H](COc3cccc([C@H](C4CC4)[C@@](C)(F)C(=O)O)c3)CC2)c1            min             474
3  COc1ccc(F)c([C@H]2CC[C@H](COc3cccc([C@@H](CC(=O)O)C4CC4)c3)CC2)c1            min             546

Consider the compound COc1ccc(F)c([C@H]2CC[C@H](COc3cccc([C@H](C4CC4)[C@@H](F)C(=O)O)c3)CC2)c1 . State its measured half-life.
258

* * *

# procedure-text: Plasma concentration in diet-induced obese C57BL/6J mouse at 30 mg/kg, po once daily for 14 days measured 24 hrs post last dose
# Assay type: ADME, organism-based
recorded-metric: concentration at 24 h (µM)
Write the answer as a number in µM, unit excluded.

Consider the compound COc1ccc(F)c([C@H]2CC[C@H](COc3cccc([C@H](C4CC4)[C@@](C)(F)C(=O)O)c3)CC2)c1 . State its measured concentration at 24 h.
391

* * *

# assayed-system: Free fatty acid receptor 1 (Homo sapiens, UniProt O14842)
# Sequence (O14842 whole entry): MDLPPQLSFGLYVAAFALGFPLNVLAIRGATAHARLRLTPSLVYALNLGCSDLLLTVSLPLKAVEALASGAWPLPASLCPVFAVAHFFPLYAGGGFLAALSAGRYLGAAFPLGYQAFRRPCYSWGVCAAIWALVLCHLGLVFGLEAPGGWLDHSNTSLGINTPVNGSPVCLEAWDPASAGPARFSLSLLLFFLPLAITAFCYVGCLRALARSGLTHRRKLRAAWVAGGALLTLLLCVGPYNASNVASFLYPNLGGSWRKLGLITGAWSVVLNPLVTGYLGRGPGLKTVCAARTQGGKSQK
# procedure-text: Agonist activity at human GPR40 expressed in CHOK1 cells assessed as induction of Galphaq-mediated IP1 accumulation after 90 mins HTRF assay
# Assay type: functional, cell-based
List of EC50 values.
Write the answer as a number in nM, unit excluded.

Examples with their reported EC50 follow.
> print(dat)
                               smiles.input  endpoint.unit  value.observed
1  COc1ccc(F)c([C@H]2CC[C@H](COc3cccc([C@H](C4CC4)[C@@H](C)C(=O)O)c3)CC2)c1             nM              22
2  COc1ccc(F)c([C@H]2CC[C@H](COc3cccc([C@H](C4CC4)C(C)(C)C(=O)O)c3)CC2)c1             nM             220
3  COc1ccc(F)c([C@H]2CC[C@H](COc3cccc([C@H](C4CC4)[C@@H](F)C(=O)O)c3)CC2)c1             nM              20

Consider the molecule COc1ccc(F)c([C@H]2CC[C@H](COc3cccc([C@H](C4CC4)[C@](C)(F)C(=O)O)c3)CC2)c1 . State its measured EC50.
89

Consider the molecule COc1ccc(F)c([C@H]2CC[C@H](COc3cccc([C@@H](CC(=O)O)C4CC4)c3)CC2)c1 . State its measured EC50.
199

Consider the molecule COc1ccc(F)c([C@H]2CC[C@H](COc3cccc([C@H](C4CC4)[C@H](C)C(=O)O)c3)CC2)c1 . State its measured EC50.
2
